Give insulin secretion stimulation for every item shown.
test: stimulators of insulin release from INS-1E, primary screen, cell-based, 5 mM glucose, NPC library (AID 1117329); details: rat INS-1E insulin secretion, at 10 µM, stronger effect = higher value
// return numeric value only (unit: %, not printed)

Which measured insulin secretion stimulation value corresponds to O=c1[nH]cnc2nc[nH]c12 ?
0.7

Which measured insulin secretion stimulation value corresponds to Nc1ccc(S(=O)(=O)NC(=O)c2ccccc2)cc1 ?
-1.7

Which measured insulin secretion stimulation value corresponds to CC(=O)O[C@H]1C[C@@H]2CC[C@@H]3[C@H](CC[C@@]4(C)[C@H]3C[C@H]([N+]3(C)CCCCC3)[C@@H]4OC(C)=O)[C@@]2(C)C[C@@H]1N1CCCCC1 ?
0.6

Which measured insulin secretion stimulation value corresponds to CC(=O)NO ?
5.1

Which measured insulin secretion stimulation value corresponds to COc1ccc2c(c1)c(CC(=O)OCC(=O)O)c(C)n2C(=O)c1ccc(Cl)cc1 ?
2.2

---

experiment: EMT-state selective cytotoxicity in co-culture – imaging, PC-3E GFP, TEM4-18 mCherry, primary screen (AID 1345086); conditions: PC-3E GFP / TEM4-18 mCherry co-culture, imaging cell counts; measured here: mesenchymal TEM4-18 mCherry cell survival; at 1 µM;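 note: cells exposed to compound for 72 h before imaging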
Lab note - cut at 1 for normalised cell number: yes if strictly below, no if not.

Does this compound meet the criterion normalised cell number < 1? NCCCC(=O)O
yes

Does this compound meet the criterion normalised cell number < 1? Nc1ccc(C(=O)NCC(=O)O)cc1
no

Does this compound meet the criterion normalised cell number < 1? C=CCc1ccccc1OCC(O)CNC(C)C (stereo unspecified)
no

Does this compound meet the criterion normalised cell number < 1? O=C(O)[C@@H]1[C@H]2C[C@H]3c4[nH]c5ccccc5c4CCN3C[C@@H]2CC[C@@H]1O
yes

Does this compound meet the criterion normalised cell number < 1? CN1CCC[C@@H]1CCO[C@](C)(c1ccccc1)c1ccc(Cl)cc1
no

Does this compound meet the criterion normalised cell number < 1? Clc1ccc(C(c2ccccc2Cl)C(Cl)Cl)cc1 (stereo unspecified)
no

Does this compound meet the criterion normalised cell number < 1? CCCOc1ccccc1-c1nc2n[nH]nc2c(=O)[nH]1
yes

Does this compound meet the criterion normalised cell number < 1? CCN(CC)CCNC(=O)c1cc(Cl)c(N)cc1OC
no

Does this compound meet the criterion normalised cell number < 1? O=C1NCC2(CCN(CCc3ccccc3)CC2)O1
no

Does this compound meet the criterion normalised cell number < 1? NCCCCCC(=O)O
no

Does this compound meet the criterion normalised cell number < 1? Cn1c(=O)c2c(ncn2CC(O)CO)n(C)c1=O (stereo unspecified)
no

Does this compound meet the criterion normalised cell number < 1? CN(C/C=C/C#CC(C)(C)C)Cc1cccc2ccccc12
no

Does this compound meet the criterion normalised cell number < 1? O=C(O)CSCC(=O)NC1CCSC1=O (stereo unspecified)
no

Does this compound meet the criterion normalised cell number < 1? Cc1ccc(S(=O)(=O)NC(=O)NN2CC3CCCC3C2)cc1 (stereo unspecified)
yes

Does this compound meet the criterion normalised cell number < 1? CCC(=O)c1c(O)cc(O)cc1O
yes

Does this compound meet the criterion normalised cell number < 1? CCc1c(C)[nH]c2c1C(=O)C(CN1CCOCC1)CC2 (stereo unspecified)
yes

Does this compound meet the criterion normalised cell number < 1? CCCc1cc(C(N)=S)ccn1
yes

Does this compound meet the criterion normalised cell number < 1? O=C(NCCN1CCOCC1)c1ccc(Cl)cc1
yes

Does this compound meet the criterion normalised cell number < 1? CC1(C)S[C@@H]2[C@H](NC(=O)[C@H](N)c3ccccc3)C(=O)N2[C@H]1C(=O)O
no

Does this compound meet the criterion normalised cell number < 1? O=C(O)CCNC(=O)c1ccccc1
yes

Does this compound meet the criterion normalised cell number < 1? CCCCCCCCNC(C)C(O)c1ccc(SC(C)C)cc1 (stereo unspecified)
yes

Does this compound meet the criterion normalised cell number < 1? CNC[C@H](O)[C@@H](O)[C@H](O)[C@H](O)CO
yes

Does this compound meet the criterion normalised cell number < 1? CC[N+](C)(CC)CCOC(=O)C(O)(c1ccccc1)C1CCCCC1 (stereo unspecified)
no

Does this compound meet the criterion normalised cell number < 1? COc1cc2c3cc1Oc1cc(ccc1O)C[C@@H]1c4c(cc(OC)c(O)c4Oc4ccc(cc4)C[C@@H]3N(C)CC2)CC[N+]1(C)C
no

---

Give nuclear beta-catenin stimulation for every item shown.
assay: Wnt pathway potentiators raising nuclear beta-catenin – imaging, WNT3A-conditioned medium, mouse C2C12, NPC library, primary screen (AID 1117326); settings: stimulation, at 2 µM, stronger effect = higher value
// return numeric value only (unit: %, not printed)

Which measured nuclear beta-catenin stimulation value corresponds to Cc1oncc1C(=O)Nc1ccc(C(F)(F)F)cc1 ?
3.9

Which measured nuclear beta-catenin stimulation value corresponds to Nc1c2c(nc3ccccc13)CCCC2O (stereo unspecified) ?
-0.9

Which measured nuclear beta-catenin stimulation value corresponds to CNC[C@H](O)[C@@H](O)[C@H](O)[C@H](O)CO ?
-1.1

Which measured nuclear beta-catenin stimulation value corresponds to O=C(CCCN1CCN(c2ccccn2)CC1)c1ccc(F)cc1 ?
-1

Which measured nuclear beta-catenin stimulation value corresponds to CSc1ccc2c(c1)C(N1CCN(C)CC1)Cc1ccccc1S2 (stereo unspecified) ?
1.4

Which measured nuclear beta-catenin stimulation value corresponds to COc1cc2nc(N3CCN(C(=O)C4CCCO4)CC3)nc(N)c2cc1OC (stereo unspecified) ?
1.4

---

test: viability loss in pontine glioma line – cell-based, SU-DIPG-XIII, MIPE4.0, CellTiter-Glo, qHTS, dose response (AID 1347061); conditions: CellTiter-Glo ATP luminescence;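 note: cells exposed to compound for 48 hours before readout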
Records with an inconclusive call do not appear. The source made the active and inactive calls. The limit is not given here; nearly all actives have AC50 up to about 37 µM.
test.readout: AC50

1. NS(=O)(=O)c1cc(C(=O)O)c(NCc2ccco2)cc1Cl    inactive
2. CNC[C@H](O)[C@@H](O)[C@H](O)[C@H](O)CO    inactive
3. N[C@@H](Cc1ccc(O)c(O)c1)C(=O)O    inactive
4. CN(C)CC/C=C1/c2ccccc2COc2ccc(CC(=O)O)cc21    inactive
5. CN(C)CCC=C1c2ccccc2C=Cc2ccccc21    inactive

Which measured AC50 value corresponds to COc1ccc2c(c1)c(CC(=O)OCC(=O)O)c(C)n2C(=O)c1ccc(Cl)cc1 ?
inactive

Which measured AC50 value corresponds to O=NN(CCCl)C(=O)NCCCl ?
inactive

Which measured AC50 value corresponds to C[N+]1(C)[C@@H]2CC(OC(=O)[C@H](CO)c3ccccc3)C[C@H]1[C@@H]1O[C@@H]12 (stereo not given in full) ?
inactive

Which measured AC50 value corresponds to CCOC(=O)O[C@]1(C(=O)OCCl)CC[C@H]2[C@@H]3CCC4=CC(=O)C=C[C@]4(C)[C@H]3[C@@H](O)C[C@@]21C ?
inactive

Which measured AC50 value corresponds to Cc1cc(C2CCCCC2)n(O)c(=O)c1 ?
16.6 µM (active)

Which measured AC50 value corresponds to CCC(C)n1ncn(-c2ccc(N3CCN(c4ccc(OC[C@H]5CO[C@](Cn6cncn6)(c6ccc(Cl)cc6Cl)O5)cc4)CC3)cc2)c1=O (stereo not given in full) ?
inactive

Which measured AC50 value corresponds to Cn1c(=O)c2c(ncn2CC(O)CO)n(C)c1=O (stereo not given) ?
inactive

Which measured AC50 value corresponds to CN(C)CCc1c[nH]c2ccc(CS(=O)(=O)N3CCCC3)cc12 ?
inactive

---

Give nuclear beta-catenin stimulation for every item shown.
experiment: Wnt pathway potentiators raising nuclear beta-catenin – imaging, WNT3A-conditioned medium, mouse C2C12, NPC library, primary screen (AID 1117326); settings: at 10 µM, stronger effect = higher value
// return numeric value only (unit: %, not printed)

Which measured nuclear beta-catenin stimulation value corresponds to Cc1ccccc1N1C(=O)c2cc(S(N)(=O)=O)c(Cl)cc2NC1C (stereo unspecified) ?
-0.4

Which measured nuclear beta-catenin stimulation value corresponds to Cc1cc(=O)[nH]c(=S)[nH]1 ?
-1.2

Which measured nuclear beta-catenin stimulation value corresponds to CCN(CC)CCOCCOC(=O)C1(c2ccccc2)CCCC1 ?
-0.6

Which measured nuclear beta-catenin stimulation value corresponds to NC(=O)c1ccc([N+](=O)[O-])cc1Cl ?
-0.6

Which measured nuclear beta-catenin stimulation value corresponds to CN(C)c1ccc(C(=C2C=CC(=[N+](C)C)C=C2)c2ccc(N(C)C)cc2)cc1 ?
1

Which measured nuclear beta-catenin stimulation value corresponds to CCn1cc(C(=O)O)c(=O)c2cc(F)c(N3CCNC(C)C3)c(F)c21 (stereo unspecified) ?
1.8

---

Give viability decrease for every item shown.
assay: growth inhibition of GSK3B-pretreated HCT116 cells – cell-based, CellTiter-Glo, 0.2 to 20 µM (AID 1117336); settings: HCT116 viability after GSK3B inhibitor, at 20 µM, stronger effect = higher value
// return numeric value only (unit: %, not printed)

Which measured viability decrease value corresponds to CC(=O)NCCCCCC(=O)O ?
-17.4

Which measured viability decrease value corresponds to CN1CCC[C@@H]1CCO[C@](C)(c1ccccc1)c1ccc(Cl)cc1 ?
25.3

Which measured viability decrease value corresponds to CNC1(C)C2CCC(C2)C1(C)C (stereo unspecified) ?
-6

Which measured viability decrease value corresponds to CC1CCC(NC(=O)N(CCCl)N=O)CC1 (stereo unspecified) ?
-24.4

Which measured viability decrease value corresponds to CC(=O)O[C@]1(C(C)=O)CC[C@H]2[C@@H]3C=C(Cl)C4=CC(=O)[C@@H]5C[C@@H]5[C@]4(C)[C@H]3CC[C@@]21C ?
16

Which measured viability decrease value corresponds to Cn1c([N+](=O)[O-])cnc1COC(N)=O ?
-8.4

Which measured viability decrease value corresponds to O=C(CCCCC(=O)Nc1c(I)cc(I)c(C(=O)O)c1I)Nc1c(I)cc(I)c(C(=O)O)c1I ?
-15.2

Which measured viability decrease value corresponds to Cc1c(NC(=O)c2cccnc2)c(=O)n(-c2ccccc2)n1C ?
-14.1

Which measured viability decrease value corresponds to COc1ccccc1OCC(O)CO (stereo unspecified) ?
-2.1

Which measured viability decrease value corresponds to O=C1CC2(CCCC2)CC(=O)N1CCCCN1CCN(c2ncccn2)CC1 ?
20.1

Which measured viability decrease value corresponds to CN1CCC(=C2c3ccccc3Sc3ccccc32)CC1 ?
77.2
